assay: CCTE_Simmons_CellTiterGLO_HEK293T: Viability Assessment in CCTE's Assays for Thyroperoxidase (TPO) Inhibition, Simmons Lab (AID 2283665)
Inconclusive results are not listed. Activity calls are given as the source filed them. The calls were made as follows: active = hit-call score of the fitted dose curve at least 0.9, where 1 is the maximum; inconclusive = response in the unintended direction; inactive = score below 0.9.
The reply should name one outcome from active, inactive

INSERT INTO assay_data (compound, assigned_class) VALUES
  ('CCCCCCCCOC(=O)c1cc(O)c(O)c(O)c1', 'active'),
  ('COc1cc(C(=O)NC2CCN(C)CC2)ccc1Nc1ncc2c(n1)N(C1CCCC1)CC(F)(F)C(=O)N2C', 'active'),
  ('CCCCCc1ccc(N)cc1', 'active'),
  ('CC(C)(c1cc(Br)c(O)c(Br)c1)c1cc(Br)c(O)c(Br)c1', 'active');

Hello, I am checking results. What call was entered for `Oc1ccc2ccccc2c1` ? inactive

Given OC12N=C(c3ccccc3)SC1Cc1cc(Cl)ccc12 (configuration not stated) , state the outcome it received in this test. active

# lookup: test call for `CC(C)(C)c1cc(/C=C2\SC(N)=NC2=O)cc(C(C)(C)C)c1O` active

Which outcome was entered for the compound `CCOC(=O)O[C@H](C)OC(=O)c1ccc2c(c1)cc(C(=O)NC1CCN(C(C)C)CC1)n2Cc1cc(-c2ccc(Cl)s2)on1` in this test? active

Can you look up the reported call for `CC(=O)N1CCN(c2ccc(OC[C@H]3CO[C@](Cn4ccnc4)(c4ccc(Cl)cc4Cl)O3)cc2)CC1` for me? active

// return assay outcome for `C[C@]12CC[C@@H]3c4ccc(O)cc4CC[C@H]3[C@@H]1CC[C@H]2O` inactive

Outcome logged for `Oc1ccccc1` in this assay: inactive

Give the logged outcome of this assay for the following compound: `CCN(Cc1cccc(S(=O)(=O)O)c1)c1ccc(C(=C2C=CC(=[N+](CC)Cc3cccc(S(=O)(=O)O)c3)C=C2)c2ccccc2S(=O)(=O)[O-])cc1` active

---

read-out: Peroxisomal acyl-coenzyme A oxidase 1 (ACOX1) gene, ACOX1 (gene 51); experiment: LTEA_HepaRG_ACOX1: Life Technologies and Expression Analysis (LTEA) Assay for Peroxisomal acyl-coenzyme A oxidase 1 (ACOX1) gene using HepaRG (AID 2283467); settings: mRNA level, 48 h; actives raise or lower the signal
Active and inactive are the calls of the source. The calls were made as follows: active = hit-call score of the fitted dose curve at least 0.9, where 1 is the maximum; inactive = score below 0.9.
API: response.call in yes = active, no = inactive

Example results:
INSERT INTO measurements (compound, assigned_class) VALUES
  ('c1ccc(C[n+]2cccc3ccccc32)cc1', 'yes'),
  ('CCCCCCCCCC(=O)O', 'no'),
  ('COCC(C)OCC(C)OCC(C)O (configuration not stated)', 'no'),
  ('Cc1ccc(C(C)C)cc1', 'no'),
  ('CCCCCCCC[Si](OCC)(OCC)OCC', 'no');

How was `O=C(O)Cc1cc(I)c(Oc2ccc(O)c(I)c2)c(I)c1` classified in this test? yes

Which result was noted for this compound in the test: `Cc1oc2c(NC(=O)c3c(Cl)cccc3Cl)cccc2c1C(C)(C)O` yes

---

assay: ATG_CRE_CIS: Attagene CIS-FACTORIAL HepG2 Assay for human cAMP Responsive Element (CRE) binding protein 3 (AID 2282926); details: HepG2 CRE cis-reporter, Attagene multiplexed mRNA; actives raise or lower the signal
Activity calls are given as the source filed them. Rule for the calls: active = hit-call score of the fitted dose curve at least 0.9, where 1 is the maximum; inactive = score below 0.9.
API: response.call in active, inactive

GET /call?item= `O=C(O)c1ccccc1-n1cc(C(=O)O)c(=O)c2cc(Nc3c(F)cc(F)cc3Cl)c(Cl)cc21` returns the recorded outcome of this test. inactive

Answer briefly: the call reported for `CCCCCCCCCCCO` in this assay. inactive

Write down the call the test reported for this compound. Item: `CO[C@H]1/C=C/O[C@@]2(C)Oc3c(C)c(O)c4c(O)c(c(/C=N/N5CCN(C)CC5)c(O)c4c3C2=O)NC(=O)/C(C)=C\C=C\[C@H](C)[C@H](O)[C@@H](C)[C@@H](O)[C@@H](C)[C@H](OC(C)=O)[C@@H]1C` inactive

What outcome does the record of this test show for `O=C1CCC(C2CCCCC2)CC1` ? inactive

Test call, this compound: `CN(C)c1ccc(C(=C2C=CC(=[N+](C)C)C=C2)c2ccc(N(C)C)cc2)cc1` inactive

Kindly provide the recorded test outcome for the following compound: `CCCCCCCCOC(=O)c1cc(O)c(O)c(O)c1` inactive

# outcome recorded in this test, key = `Clc1ccccc1C(c1ccccc1)(c1ccccc1)n1ccnc1` inactive

Could you please tell me the result logged for `O=C(Nc1ccc(Cl)cc1)Nc1ccc(Cl)c(Cl)c1` in this assay? active

Could you check what this test reported for `Cc1occc1C(=O)Nc1ccc(C(=O)N2CCC(F)(F)/C(=C\C(=O)N3CCC(N4CCCCC4)CC3)c3ccccc32)cc1` ? inactive

Write down the call the test reported for this compound. Item: `Cc1cc(F)ccc1-c1cc(N2CC[C@@H](O)[C@H]2CO)ncc1N(C)C(=O)C(C)(C)c1cc(C(F)(F)F)cc(C(F)(F)F)c1` inactive

Test call, this compound: `CC(=O)N1CCN(c2ccc(OC[C@H]3CO[C@](Cn4ccnc4)(c4ccc(Cl)cc4Cl)O3)cc2)CC1` active

Outcome? `CCCCCCCCCC(=O)O` inactive

Kindly provide the recorded test outcome for the following compound: `O=C(O)c1ccccc1C(=O)OCc1ccccc1` inactive

# fetch the recorded call for `CC1=CC(=O)/C(=C(/C)O)C(=O)O1` here inactive

Record request — test call for `O=C1c2ccccc2C(=O)N1CCc1noc(-c2ccc(CN3CCCCCC3)s2)n1` inactive

Status in this test for `CCOC(=O)O[C@H](C)OC(=O)c1ccc2c(c1)cc(C(=O)NC1CCN(C(C)C)CC1)n2Cc1cc(-c2ccc(Cl)s2)on1` ? inactive

State the result this test recorded for `Oc1ccc2ccccc2c1` . inactive

So what was the verdict on `CN(C[C@@H](CC[N+]12CCC(C3CCCCC3)(CC1)CC2)c1ccc(Cl)c(Cl)c1)C(=O)c1cc(C(F)(F)F)cc(C(F)(F)F)c1` in this test? inactive

Answer briefly: the call reported for `OCCO` in this assay. inactive

What is the recorded call for this compound in the test? `O=C(O)Cc1cc(I)c(Oc2ccc(O)c(I)c2)c(I)c1` inactive

Give the logged outcome of this assay for the following compound: `COc1cccc([C@H](O)C2CCN(CCc3ccc(F)cc3)CC2)c1OC` inactive

---

read-out: matrix metalloproteinase-1 (MMP1), MMP1 (gene 4312); test: LTEA_HepaRG_MMP1: Life Technologies and Expression Analysis (LTEA) Assay for matrix metalloproteinase-1 (MMP1) using HepaRG (AID 2283658); conditions: mRNA level, 48 h; actives raise or lower the signal
The source made the active and inactive calls. Rule for the calls: active = hit-call score of the fitted dose curve at least 0.9, where 1 is the maximum; inactive = score below 0.9.
Measured property: outcome

INSERT INTO assay_data (smiles, measured_property, reported_result) VALUES
  ('CCN(CC)C(=O)c1cc(S(=O)(=O)Cc2ccccc2)c(N2CCC(c3ccccc3)CC2)cc1N(CC)CCN(C)C', 'outcome', 'inactive'),
  ('C[C@]12CC[C@@H]3c4ccc(O)cc4CC[C@H]3[C@@H]1CC[C@H]2O', 'outcome', 'inactive'),
  ('CCCCCCCCCCCCO', 'outcome', 'inactive'),
  ('CCCOC(=O)c1cc(O)c(O)c(O)c1', 'outcome', 'inactive');

Turning to the following molecule.
What value of measured outcome is listed for `Cc1occc1C(=O)Nc1ccc(C(=O)N2CCC(F)(F)/C(=C\C(=O)N3CCC(N4CCCCC4)CC3)c3ccccc32)cc1` ? inactive

---

target: rat Neurokinin-3 Receptor (NK3), Tacr3 (gene 24808); assay: NVS_GPCR_rNK3: NovaScreen (NVS) G Protein-Coupled Receptor Assay for rat Neurokinin-3 Receptor (NK3) (AID 2283310)
Inconclusive results are not listed. The source made the active and inactive calls. The calls were made as follows: active = hit-call score of the fitted dose curve at least 0.9, where 1 is the maximum; inconclusive = response in the unintended direction; inactive = score below 0.9.
Give one outcome, nothing more. List: 1 (active), -1 (inactive)

Solved entries:
INSERT INTO measurements (smiles, assigned_class) VALUES
  ('CN(C)c1ccc(C(=C2C=CC(=[N+](C)C)C=C2)c2ccc(N(C)C)cc2)cc1', 1),
  ('CCCOC(=O)c1cc(O)c(O)c(O)c1', 1),
  ('CN(C[C@@H](CC[N+]12CCC(C3CCCCC3)(CC1)CC2)c1ccc(Cl)c(Cl)c1)C(=O)c1cc(C(F)(F)F)cc(C(F)(F)F)c1', 1),
  ('O=C1c2ccccc2C(=O)N1CCc1noc(-c2ccc(CN3CCCCCC3)s2)n1', -1);

# ---- query compound ----
Please let me know the test result on file for `CCN(Cc1cccnc1)C(=O)c1cccc(Cl)c1[C@]1(C)C(=O)N(Cc2ccc(OC)cc2OC)c2ccc(Cl)cc21` . 1

---

read-out: Apolipoprotein A-V (APOA5) gene, APOA5 (gene 116519); assay: LTEA_HepaRG_APOA5: Life Technologies and Expression Analysis (LTEA) Assay for Apolipoprotein A-V (APOA5) gene using HepaRG (AID 2283474); settings: mRNA level, 48 h; actives raise or lower the signal
Activity calls are given as the source filed them. How the source made its calls: active means hit-call score of the fitted dose curve at least 0.9, where 1 is the maximum; inactive means score below 0.9.
Mark one answer only. Choices: yes = active, no = inactive

Worked set:
INSERT INTO assay_data (molecule, assigned_class) VALUES
  ('O=C(OCCCCCCOC(=O)c1ccccc1)c1ccccc1', 'no'),
  ('Cc1ncc(CO)c(CO)c1O', 'no');

Would you mind telling me which call this test gave `O=c1ccc2ccccc2o1` ? no

Tell me the assay call for `O=C(O)Cn1c(=O)n(Cc2ccc(Br)cc2F)c(=O)c2ccc(Cl)cc21` please. no

Status in this test for `CC[C@@H]1C[C@H](N(Cc2cc(C(F)(F)F)cc(C(F)(F)F)c2)C(C)=O)c2cc(C(F)(F)F)ccc2N1C(=O)OC(C)C` ? no

For `Clc1ccccc1C(c1ccccc1)(c1ccccc1)n1ccnc1` , which call appears in the assay record? yes

Any idea what this test logged for `CC1(C)NC(=O)N(c2ccc([N+](=O)[O-])c(C(F)(F)F)c2)C1=O` ? yes

I would be grateful if you could indicate the recorded call for `Cc1cn([C@H]2C[C@H](N=[N+]=[N-])[C@@H](CO)O2)c(=O)[nH]c1=O` . no

Please indicate how the test categorized `CC[C@H](NC(=O)c1cc(F)ccc1NS(=O)(=O)c1cccc2cccnc12)c1ccccc1` . yes
